System: IGROV-1
Assay name: NCI tumour cell line growth inhibition, 48 h
Calls of active or inactive are those of the source. No stated cut-off is given here; in the data, active = GI50 up to about 1.1 µM and inactive = higher.
Assign a class; possible classes are active, inactive

Before answering, review these 8 worked examples.
Compound: COc1ccc(C(C#N)NNC(=O)c2ccccc2O)cc1OC (centres undefined)
Assigned label: active

Compound: COC(=O)C1=NC(=S)NC(c2ccccc2)C1c1nc2ccccc2s1 (centres undefined)
Assigned label: inactive

Compound: COc1cc2nc3n(c2cc1OC)C(O)c1c(Cl)nc(SC)nc1S3 (centres undefined)
Assigned label: inactive

Compound: CC[C@H](C)[C@H]1NC(=O)[C@@H](NC(=O)[C@@H](CC(C)C)N(C)C(=O)C2CCCN2C(=O)[C@H](C)O)[C@@H](C)OC(=O)[C@H](Cc2ccc(OC)cc2)N(C)C(=O)[C@@H]2CCCN2C(=O)[C@H](CCCCNC(=O)OCc2ccccc2)NC(=O)[C@H](C)C(=O)[C@H](C(C)C)OC(=O)C[C@@H]1O (some centres undefined)
Assigned label: inactive

Compound: CCCCCCCCCCCCCCCCCCN(C)C(COC)COP(=O)([O-])OCC[N+](C)(C)C (centres undefined)
Assigned label: inactive

Compound: COC(=O)c1cc(NC(=O)Cc2c[nH]c3ccccc23)cn1C
Assigned label: inactive

Compound: N#CN=C(NCCO)NCCO
Assigned label: inactive

Compound: O=[N+]([O-])c1ccc2c(c1)Cc1cc(/N=C/c3ccc4c(c3)OCO4)ccc1-2
Assigned label: inactive

Q) Name the outcome recorded for N#Cc1c(OCCF)c2ccccc2n2c1nc1ccccc12 in the assay.
A) inactive

Q) Name the outcome recorded for CSc1nc(Cl)c(Br)c(Sc2nc(N)nc3nc[nH]c23)n1 in the assay.
A) inactive

Q) Name the outcome recorded for O=C1C(N2CCN(c3ccccn3)CC2)=C(Cl)C(=O)c2ncccc21 in the assay.
A) inactive

Q) Name the outcome recorded for CCCCc1ccc(NC(=N)N)cc1 in the assay.
A) inactive

Q) Name the outcome recorded for Cc1ccc(S(=O)(=O)N2C[C@](O)(c3ccccc3)[C@H]2C)cc1 in the assay.
A) inactive

Q) Name the outcome recorded for CC1CCOc2ccc(cc2)/C=N\c2ccc(cc2)-c2ccc(cc2)/N=C\c2ccc(cc2)OCC1 in the assay.
A) inactive

Q) Name the outcome recorded for CC12CC1C(c1cccc([N+](=O)[O-])c1)(c1cccc([N+](=O)[O-])c1)N=N2 (centres undefined) in the assay.
A) inactive

Q) Name the outcome recorded for COc1cc2c(cc1O)CCN[C@@]21CS[C@H]2c3c(OC(C)=O)c(C)c4c(c3C(COC1=O)N1C2C2c3c(cc(C)c(OC)c3O)CC([C@@H]1O)N2C)OCO4 (some centres undefined) in the assay.
A) active

Q) Name the outcome recorded for CC[C@@]12CCCN3CC[C@]4(c5cccc(OC)c5N(C(C)=O)[C@@H]4CC1)[C@H]32 [ASPIDOSPERMINE] in the assay.
A) inactive

Q) Name the outcome recorded for COc1ccc(OC)c2sc(N3C(=O)/C(=C/c4ccc(SC)cc4)N=C3c3ccccc3)nc12 in the assay.
A) inactive

Q) Name the outcome recorded for Fc1cccc(Cl)c1/C=N\N=C1c2ccccc2-c2ccccc21 in the assay.
A) inactive

----------
# GI50 listing for each entry below
System: RXF 393
Assay name: NCI tumour cell line growth inhibition, 48 h
Active and inactive are the calls of the source. Rule as the data show it: active = GI50 up to about 1.1 µM and inactive = higher.

Compound: CSC12c3cc(C)n(-c4ccc(I)cc4)c3CC(C)(C)CN1C(=O)C2Oc1ccccc1 (stereo unspecified)
System under test: RXF 393
Endpoint: GI50
Test result: > 100 µM (inactive)
--
Compound: O=C(CCc1nnc2s/c(=C\c3ccc(Cl)c(Cl)c3)c(=O)n12)Nc1ccc(Cl)c(Cl)c1
System under test: RXF 393
Endpoint: GI50
Test result: 28.8 µM (inactive)
--
Compound: S=C(N/N=C\C=N/NC(=S)N1CCCCC1)N1CCCCC1
System under test: RXF 393
Endpoint: GI50
Test result: 0.296 µM (active)
--
Compound: Clc1ccc(CSc2ncnc3c2ncn3C2CCCCO2)cc1 (stereo unspecified)
System under test: RXF 393
Endpoint: GI50
Test result: 25.1 µM (inactive)
--
Compound: COc1ccc(/C=C2\CCC(Cc3ccccc3)(CN(C)C)C2=O)cc1 (stereo unspecified)
System under test: RXF 393
Endpoint: GI50
Test result: 35.1 µM (inactive)

Q) Item under review: Cc1c(C(=O)O)c2cc3ccccc3cc2c(=O)n1C . Reported GI50?
A) > 10 µM (inactive)

Q) Item under review: O=[N+]([O-])c1ccc2c(c1)Cc1cc(/N=C/c3ccc4c(c3)OCO4)ccc1-2 . Reported GI50?
A) > 100 µM (inactive)
